method summary: compounds altering viability of human ES cells (AID 493140);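 further: cells exposed to compounds for four days before counting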
details: human embryonic stem cell survival screen; stronger effect = higher value
Calls of active or inactive are those of the source. How the calls were made is not given here.
Please go through the items and note down their survival.

Example entries begin here.
CCC1(C)CC(=O)NC1=O (stereo not given) | 28.8 (inactive)
COc1ccc2nc(S(=O)Cc3ncc(C)c(OC)c3C)[nH]c2c1 (stereo not given) | 10.2 (inactive)
CC(C)(C)NC(=O)[C@H]1CC[C@H]2[C@@H]3CC[C@H]4NC(=O)C=C[C@]4(C)[C@H]3CC[C@]12C | 7 (inactive)
COC(=O)[C@@H]1[C@H]2C[C@H]3c4[nH]c5ccccc5c4CCN3C[C@@H]2CC[C@@H]1O | 8.25 (inactive)
CC(C)(Sc1cc(C(C)(C)C)c(O)c(C(C)(C)C)c1)Sc1cc(C(C)(C)C)c(O)c(C(C)(C)C)c1 | 7.33 (inactive)
CCCCNc1ccc(C(=O)OCCN(C)C)cc1 | 12.4 (inactive)
CN1CCOC(c2ccccc2)c2ccccc2C1 (stereo not given) | 21.3 (inactive)
CCc1c(C)[nH]c2c1C(=O)C(CN1CCOCC1)CC2 (stereo not given) | 6.5 (inactive)
CCN(CC)CCNC(=O)c1cc(S(C)(=O)=O)ccc1OC | 16.2 (inactive)
O=C(Cn1ccnc1[N+](=O)[O-])NCCO | 5.17 (inactive)

I would be grateful if you could provide survival for each of the following entries.
1. CCCCC(CC)CN1CN(CC(CC)CCCC)CC(C)(N)C1 (stereo not given)
2. COC(=O)Nc1nc2ccc(C(=O)c3cccs3)cc2[nH]1

1. 6.83 (inactive)
2. 1.17 (inactive)

I would be grateful if you could provide survival for each of the following entries.
1. CCCCC1(COC(=O)CCC(=O)O)C(=O)N(c2ccccc2)N(c2ccccc2)C1=O
2. O=C(O)CCC(=O)Nc1ccc(S(=O)(=O)Nc2nccs2)cc1

1. 3.58 (inactive)
2. 6.17 (inactive)

Given the molecule O=C1NCC2(CCN(CCc3ccccc3)CC2)O1 , what is its reported survival? 18.8 (inactive)
